Assay: blockers of RIG-like receptor reporter activation – cell-based, Sendai virus stimulus, luciferase, 10K MLSCN set, TLR/RLR signaling modifier project, primary screen (AID 602276);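 note: firefly luciferase from ISG56 promoter only with Renilla not read in this screen; 0% = Sendai virus plus DMSO and 100% = medium plus DMSO without virus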
Details: HEK293 RL24 IRF3 luciferase reporter, at 10 µM, active compounds read high

| Compound | inhibition, % |
| --- | --- |
| CCN(CCCNC(=O)c1cn(CC)c2ccc(S(=O)(=O)N(C)C)cc2c1=O)c1cccc(C)c1 | 5.55 |
| O=C(c1ccc(Cl)c(Cl)c1)N1CCOCC1 | 3.81 |
| COc1ccc2oc(C)c(C(=O)Cn3ccnc3)c2c1 | -26.4 |
| CC(C)CCNC(=O)NC(=O)CSc1nnc(COc2ccccc2Cl)o1 | 9.99 |
| CCCNCC(O)COc1ccccc1C(=O)CCc1ccccc1 (configuration not stated) | 9.47 |
| CCn1ncc(C2=NOC(C(=O)NCc3ccc(Cl)cc3)C2)c1C (configuration not stated) | 2.33 |
| COC(=O)c1ccc(CSc2ncnc3c2nnn3-c2ccc(OC)cc2)o1 | 1.55 |
| C=C(C)Cn1c(SCC)nc2ccccc2c1=O | 9.69 |
| COc1cc2c(cc1OC)C(c1cc(OC)c(OC)c(OC)c1)NCC2 (configuration not stated) | 15.4 |
| CN(C)/C=c1\sc2c(C#N)cc(C(=O)c3ccc(Br)cc3)n2c1=O | -3.73 |
| Cn1ccnc1C(O)c1ccco1 (configuration not stated) | 15.2 |
| COCCNC(=O)Cn1nc(C(F)(F)F)c(Br)c1C | 3.89 |
